Tested on: Sonic hedgehog protein (Shh)
testDescription: small-molecule binders of Shh protein, primary screen, biochemical, small-molecule microarray, 635/667 nm fluorescence (AID 1151);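 further: Shh protein binding to compounds spotted on small-molecule microarray slides; score combines spot fluorescence intensity with signal-to-noise across triplicate slides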
experimentalConditions: small-molecule microarray binding, 635 nm fluorescence; higher = more signal
Provide the reported composite z-score of each item.
Give your answer as a number; write no unit.

Ask: Give the reported value of composite z-score for this record: COc1ccc([Si](C)(C)[C@H]2[C@H](CCn3cc([C@H](O)c4ccccc4)nn3)O[C@@]3(C(=O)N(Cc4ccc(N5CCC5=O)cc4)c4ccccc43)[C@@H]2C)cc1
Reply: 1.83

Ask: State its composite z-score: COC(=O)[C@@]1(Cc2ccc(OC)cc2)[C@H]2c3cc(C(=O)N(C)C)n(Cc4nc5ccccc5[nH]4)c3C[C@H]2CN1C(=O)c1ccccc1
Reply: -0.388

Ask: Consider the molecule CC(=O)NCCCC[C@@H]1NC(=O)[C@@H]2C[C@H](C(=O)O)[C@H](c3ccc(O)cc3)N2C1=O and give its recorded composite z-score.
Reply: -0.96

Ask: Write down composite z-score measured for item COC(=O)C1(Cc2ccccc2)C=C2C(=C(C(C)C)C(=O)C2C)CN1 (configuration not stated)
Reply: -0.45

Ask: Entry CN1C(=O)C2C=CC(C(O)Cc3ccccc3)N(N(c3ccccc3)c3ccccc3)C2C1=O (configuration not stated) needs its composite z-score filled in; supply it.
Reply: -0.572

Ask: Return composite z-score for the following molecule: NC(=O)N1C(=O)C2C(C1=O)C1C=C(c3ccc(CO)cc3)C2C(C2CC2)N1Cc1sc2ccccc2c1Cl (configuration not stated)
Reply: 1.38

Ask: Consider the molecule C=C[C@H](COC(C)=O)NS(=O)(=O)c1ccc(Br)cc1 and give its recorded composite z-score.
Reply: 0.382

Ask: Please look at this molecule and report its composite z-score: CCCCN1CC=CC23O[C@@H]4C=CCOC(=O)[C@@H]4[C@H]2C(=O)N(CCCO)[C@@H]3C1=O (some centres not stated)
Reply: -0.512

Ask: Entry CON(C)C(=O)C=C1C[C@@H](c2cccc(Cl)c2)O[C@@H](c2cccc(Cl)c2)O1 needs its composite z-score filled in; supply it.
Reply: 0.774

Ask: Return composite z-score for the following molecule: C=CCOC(=O)[C@@H]1[C@H]2C(=O)O[C@H](c3ccccc3)[C@H](c3ccccc3)N2[C@H](c2ccc(OCCOC(=O)[C@H]3C[C@H]4C(=O)N[C@@H](CCCC[N+](C)(C)C)C(=O)N4[C@H]3c3ccc(O)cc3)cc2)[C@@]12C(=O)Nc1ccc(I)cc12
Reply: 2.15

Ask: Give the reported composite z-score for this molecule. C[C@@H](OCc1ccccc1)C1NC(=O)[C@@]23C(=O)N[C@@H](Cc4ccccc4)C2[C@H](C)[C@@]2(C)O[C@H]2C3/C=C/C/C=C\CNC(=O)CNC1=O (some centres not stated)
Reply: 1.24

Ask: Quick one: give measured composite z-score for C=C(COC)/C(=C/C[C@@H](OC(=O)c1ccncc1)c1cccc(OCCO)c1)c1cnc2ccccc2c1
Reply: 2.3

Ask: Please look at this molecule and report its composite z-score: [N-]=[N+]=Nc1ccccc1[C@@H]1OC(c2ccc(OCCCO)cc2)=N[C@]1(CCS(=O)(=O)c1ccccc1)C(=O)NCCN1CCOCC1
Reply: -0.252

Ask: Give the reported composite z-score for this molecule. CCCCC(CC)C(O)C1C=CC2C(=O)N(c3ccccc3)C(=O)C2N1Nc1ccc([N+](=O)[O-])cc1 (configuration not stated)
Reply: -0.277

Ask: Consider the molecule CC(C)c1ccc(NN2C(C(O)c3ccco3)C=CC3C(=O)N(c4ccccc4)C(=O)C32)cc1 (configuration not stated) . State its measured composite z-score.
Reply: 0.794

Ask: Give a short answer stating reported composite z-score for CC(C)CN1C(=O)[C@@]2(c3ccc([N+](=O)[O-])cc3)CC(=O)N(CC34CC5CC(CC(C5)C3)C4)[C@@H]2c2ccc(CO)cc21 .
Reply: -1.51

Ask: Give a short answer stating reported composite z-score for Cc1ccc(S[C@]2(C(=O)NCc3ccccc3)CC(=O)N(C(C)C)[C@@H]2c2ccc(CO)cc2I)cc1 .
Reply: -1.37
